Values compiled from patent US20230021388A1.

# test.system: T1, recombinant human ROR1 extracellular domain (human, UniProt Q01973 30-406)
# T1 construct: biotinylated for the filter lifts; also called huROR1-ECD; human ROR1-ECD
# T1 sequence (Q01973 30-406 limits assumed): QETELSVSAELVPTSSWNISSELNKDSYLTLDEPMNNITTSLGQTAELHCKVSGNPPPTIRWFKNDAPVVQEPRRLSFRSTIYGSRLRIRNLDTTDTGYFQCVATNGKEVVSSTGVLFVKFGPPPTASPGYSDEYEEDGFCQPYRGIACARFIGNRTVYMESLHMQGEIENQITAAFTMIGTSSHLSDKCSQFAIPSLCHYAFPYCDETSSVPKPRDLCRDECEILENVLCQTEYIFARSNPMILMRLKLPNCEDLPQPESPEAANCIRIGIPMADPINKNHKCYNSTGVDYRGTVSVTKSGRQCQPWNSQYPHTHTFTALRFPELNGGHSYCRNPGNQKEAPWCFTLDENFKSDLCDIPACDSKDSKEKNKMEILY
# assay.remarks: capture filter lift

{"binder": "Ab1 Fab variant L3 T138S (Fab, V domains shown, Fab) VH: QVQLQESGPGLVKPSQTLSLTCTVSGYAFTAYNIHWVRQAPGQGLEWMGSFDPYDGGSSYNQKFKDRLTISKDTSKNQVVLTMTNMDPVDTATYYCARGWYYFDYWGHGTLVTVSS VL: DIVMTQTPLSLPVTPGEPASISCRASKSISKYLAWYQQKPGQAPRLLIYSGSTLQSGIPPRFSGSGYGTDFTLTINNIESEDAAYYFCQQHDESPYSFGEGTKVEIK", "binding result": "binds"}
{"binder": "Ab1 Fab variant L3 Q108L (Fab, V domains shown, Fab) VH: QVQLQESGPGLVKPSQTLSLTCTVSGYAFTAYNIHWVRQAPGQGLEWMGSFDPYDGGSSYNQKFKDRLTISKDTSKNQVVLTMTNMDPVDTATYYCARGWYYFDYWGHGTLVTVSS VL: DIVMTQTPLSLPVTPGEPASISCRASKSISKYLAWYQQKPGQAPRLLIYSGSTLQSGIPPRFSGSGYGTDFTLTINNIESEDAAYYFCQLHDESPYTFGEGTKVEIK", "binding result": "binds"}
{"binder": "Ab1 Fab variant H1 Y29S (Fab, V domains shown, Fab) VH: QVQLQESGPGLVKPSQTLSLTCTVSGSAFTAYNIHWVRQAPGQGLEWMGSFDPYDGGSSYNQKFKDRLTISKDTSKNQVVLTMTNMDPVDTATYYCARGWYYFDYWGHGTLVTVSS VL: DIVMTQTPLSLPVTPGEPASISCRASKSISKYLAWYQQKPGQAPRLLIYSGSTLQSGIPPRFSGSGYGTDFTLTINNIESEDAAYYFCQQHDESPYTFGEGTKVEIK", "binding result": "binds"}
